Taken from patent US8217140B2.

target.under.test: Cynomolgus monkey serum albumin (Macaca fascicularis, UniProt A2V9Z4)
Sequence (A2V9Z4 25-608): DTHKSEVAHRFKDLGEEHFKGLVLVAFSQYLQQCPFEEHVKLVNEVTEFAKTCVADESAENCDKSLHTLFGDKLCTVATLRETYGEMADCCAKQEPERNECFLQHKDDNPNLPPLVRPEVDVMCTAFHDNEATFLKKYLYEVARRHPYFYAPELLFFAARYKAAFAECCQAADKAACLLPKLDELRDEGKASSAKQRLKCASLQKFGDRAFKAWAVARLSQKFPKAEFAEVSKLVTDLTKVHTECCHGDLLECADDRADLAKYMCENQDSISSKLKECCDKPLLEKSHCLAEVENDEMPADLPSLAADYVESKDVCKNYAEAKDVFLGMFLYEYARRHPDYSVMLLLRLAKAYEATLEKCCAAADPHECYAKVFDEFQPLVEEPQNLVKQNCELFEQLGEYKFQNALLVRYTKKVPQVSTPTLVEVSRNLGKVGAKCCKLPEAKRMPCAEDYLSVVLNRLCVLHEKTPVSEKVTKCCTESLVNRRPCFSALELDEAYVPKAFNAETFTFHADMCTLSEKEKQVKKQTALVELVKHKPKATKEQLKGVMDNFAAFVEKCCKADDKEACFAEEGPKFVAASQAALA
protocol.notes: Surface plasmon resonance (BIAcore 3000) of MycHis tagged 2D3-Expedite fusions, Example 10
Type: binding
condition.summary: Cynomolgus monkey serum albumin; chip ~3000 RU
Procedure: The binding of the resulting 2D3-9GS-56E4-MycHis, 2D3-9GS-59C2-MycHis, 2D3-9GS-59F2-MycHis and 2D3-9GS-59H12-MycHis fusion proteins to human and cynomolgus serum albumin (HSA and CSA respectively) was determined using surface plasmon resonance analysis. For this purpose, binding to HSA and CSA was assessed in BIAcore™ 3000, by injecting concentration series of the fusion proteins ranging from 2 μM to 200 nM on a CM5 chip coated with ˜3000 RU HSA or CSA. […]
measurement.kind: ka

| molecule | meas.value |
| --- | --- |
| 2D3-9GS-59C2-MycHis: SEQ ID NO: 160 (protein, Myc-His tag) EVQLVESGGSLVQPGGSLRLSCAASGFTFDDYAMSWVRQVPGKGLEWVSSINWSGTHTDYADSVKGRFTISRNNANNTLYLQMNSLKSEDTAVYYCAKNWRDAGTTWFEKSGSAGQGTQVTVSSGGGGSGGGSAAARDWDFDVFGGGTPVGGAAAEQKLISEEDLNGAAHHHHHH | 2.75E+03 1/ms |
| 2D3-9GS-59H12-MycHis: SEQ ID NO: 161 (protein, Myc-His tag) EVQLVESGGSLVQPGGSLRLSCAASGFTFDDYAMSWVRQVPGKGLEWVSSINWSGTHTDYADSVKGRFTISRNNANNTLYLQMNSLKSEDTAVYYCAKNWRDAGTTWFEKSGSAGQGTQVTVSSGGGGSGGGSAAARSWDFDVFGGGTPVGGAAAEQKLISEEDLNGAAHHHHHH | 3.45E+03 1/ms |
| 2D3-9GS-59F2-MycHis: SEQ ID NO: 159 (protein, Myc-His tag) EVQLVESGGSLVQPGGSLRLSCAASGFTFDDYAMSWVRQVPGKGLEWVSSINWSGTHTDYADSVKGRFTISRNNANNTLYLQMNSLKSEDTAVYYCAKNWRDAGTTWFEKSGSAGQGTQVTVSSGGGGSGGGSAAARYWDFDVFGGGTPVGGAAAEQKLISEEDLNGAAHHHHHH | 4.85E+03 1/ms |
| 2D3-9GS-56E4-MycHis: SEQ ID NO: 158 (protein, Myc-His tag) EVQLVESGGSLVQPGGSLRLSCAASGFTFDDYAMSWVRQVPGKGLEWVSSINWSGTHTDYADSVKGRFTISRNNANNTLYLQMNSLKSEDTAVYYCAKNWRDAGTTWFEKSGSAGQGTQVTVSSGGGGSGGGSAAARYWDYDVFGGGTPVGGAAAEQKLISEEDLNGAAHHHHHH | 4.01E+03 1/ms |
